Consider the following compounds and their measured GRP139 Agonist activity Averaged Max % Response (±St. Dev.) readings.
Biological target: GPR139 (Homo sapiens, UniProt Q6DWJ6)
Sequence (Q6DWJ6 1-353): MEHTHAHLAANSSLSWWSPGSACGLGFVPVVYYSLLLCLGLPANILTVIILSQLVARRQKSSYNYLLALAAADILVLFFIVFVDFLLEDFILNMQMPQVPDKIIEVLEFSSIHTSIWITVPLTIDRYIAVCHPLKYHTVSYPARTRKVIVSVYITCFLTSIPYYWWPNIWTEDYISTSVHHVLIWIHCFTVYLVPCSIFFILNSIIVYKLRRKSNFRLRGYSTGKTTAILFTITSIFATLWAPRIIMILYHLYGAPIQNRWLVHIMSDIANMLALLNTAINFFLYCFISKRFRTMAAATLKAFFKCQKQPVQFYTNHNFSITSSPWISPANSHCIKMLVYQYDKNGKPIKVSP
Assay: GPR139 Agonist titration / agonist counterscreen assay (calcium detection, HEK-GPR139 cells)
Assay type: cell-based
Design: expressed in transfected cells; host or cells: HEK Aequorin cells, Maxcyte transient transfection
Settings: agonist counterscreen of the antagonists
measured parameter: GRP139 Agonist activity Averaged Max % Response (±St. Dev.) (%)

[[record]]
compound = "CCOC(=O)c1c(C)nc2c(c1-c1ccc(F)cc1)C(=O)CC(c1ccc(Cl)cc1)C2 (stereo not drawn)"
assay_system = "GPR139 (Homo sapiens, UniProt Q6DWJ6)"
unit_tag = "%"
number = 0.45

[[record]]
compound = "Cc1c(-c2cccc(NC(=O)C3c4ccccc4Oc4ccccc43)c2)nc2ncccn12"
assay_system = "GPR139 (Homo sapiens, UniProt Q6DWJ6)"
unit_tag = "%"
number = 35.82

[[record]]
compound = "O=C(NCCC1CCCCC1)N1c2ccccc2Sc2ccccc21"
assay_system = "GPR139 (Homo sapiens, UniProt Q6DWJ6)"
unit_tag = "%"
number = 15.11

[[record]]
compound = "Cc1cc(C(=O)N/N=C/c2cn(Cc3ccccc3)c3ccccc23)n[nH]1"
assay_system = "GPR139 (Homo sapiens, UniProt Q6DWJ6)"
unit_tag = "%"
number = 8.07

[[record]]
compound = "Cc1cc(I)ccc1NC(=O)CSc1cccs1"
assay_system = "GPR139 (Homo sapiens, UniProt Q6DWJ6)"
unit_tag = "%"
number = 4.38

[[record]]
compound = "CC(=O)N1N=C(c2ccc(C)cc2)CC1c1ccccc1F (stereo not drawn)"
assay_system = "GPR139 (Homo sapiens, UniProt Q6DWJ6)"
unit_tag = "%"
number = 4.88

[[record]]
compound = "CCCCCCOC(=S)SCC(=O)Nc1ccccc1"
assay_system = "GPR139 (Homo sapiens, UniProt Q6DWJ6)"
unit_tag = "%"
number = 25.84

[[record]]
compound = "COc1ccccc1CNC(=O)N1c2ccccc2Sc2ccccc21"
assay_system = "GPR139 (Homo sapiens, UniProt Q6DWJ6)"
unit_tag = "%"
number = 7.66

